- System: Escherichia coli
- run_description: Antibacterial activity against Escherichia coli ATCC 25922/35128 after 24 hrs by MTT assay
- Assay type: functional
- condition_summary: ATCC 25922/35128, 24 h
metric: MIC (µg/mL)

Cc1ncc([N+](=O)[O-])n1Cc1nnc(Cc2ccc(Br)cc2)o1
50
Cc1ccccc1Cc1nnc(Cn2c([N+](=O)[O-])cnc2C)o1
12.5
Cc1ccccc1-c1nnc(Cn2c([N+](=O)[O-])cnc2C)o1
1.56
COc1cccc(-c2nnc(Cn3c([N+](=O)[O-])cnc3C)o2)c1
12.5
Cc1ncc([N+](=O)[O-])n1Cc1nnc(-c2ccc(Br)cc2)o1
25
COc1ccccc1Cc1nnc(Cn2c([N+](=O)[O-])cnc2C)o1
50

P = Cc1ncc([N+](=O)[O-])n1Cc1nnc(Cc2ccc(Cl)cc2)o1
Q = COc1cccc(Cc2nnc(Cn3c([N+](=O)[O-])cnc3C)o2)c1
Query :: Param pair: P , Q . Output: the one whose MIC is numerically greater. // respond with label for picked entry
Result :: P

a = Cc1ncc([N+](=O)[O-])n1Cc1nnc(Cc2ccc(F)cc2)o1
b = Cc1ncc([N+](=O)[O-])n1Cc1nnc(-c2cccc(Br)c2)o1
c = Cc1ncc([N+](=O)[O-])n1Cc1nnc(-c2ccc(F)cc2)o1
Query :: Rank entries according to their MIC, from the largest number down. Please express your ranking as an ordered list of the labels.
Result :: a, c, b
(a: 25 µg/mL, c: 12.5 µg/mL, b: 6.25 µg/mL)

----------
- Tested on: Bacillus subtilis
- run_description: Antibacterial activity against Bacillus subtilis ATCC 530 after 24 hrs by MTT assay
- Assay type: functional
- condition_summary: ATCC 530, 24 h
metric: MIC (µg/mL)

COc1ccccc1Cc1nnc(Cn2c([N+](=O)[O-])cnc2C)o1
25

P = Cc1ccccc1-c1nnc(Cn2c([N+](=O)[O-])cnc2C)o1
Q = COc1cccc(Cc2nnc(Cn3c([N+](=O)[O-])cnc3C)o2)c1
Query :: Kindly compare P with Q and tell me which has the lower MIC figure. // respond with label for picked entry
Result :: P

----------
- Tested on: Escherichia coli
- run_description: Antibacterial activity against Escherichia coli ATCC 25922/35128 after 24 hrs by MTT assay
- Type: functional
- condition_summary: ATCC 25922/35128, 24 h
metric: MIC (µg/mL)

Study these solved cases before continuing.
Cc1ncc([N+](=O)[O-])n1Cc1nnc(-c2ccc(Cl)cc2)o1
12.5
Cc1ncc([N+](=O)[O-])n1Cc1nnc(Cc2cccc(Br)c2)o1
25
NC[C@H]1O[C@H](O[C@H]2[C@H](O)[C@@H](O[C@H]3O[C@H](CO)[C@@H](O)[C@H](N)[C@H]3O)[C@H](N)C[C@@H]2N)[C@H](O)[C@@H](O)[C@@H]1O
3.13

P = COc1ccccc1-c1nnc(Cn2c([N+](=O)[O-])cnc2C)o1
Q = Cc1ncc([N+](=O)[O-])n1Cc1nnc(-c2ccc([N+](=O)[O-])cc2)o1
R = Cc1ncc([N+](=O)[O-])n1Cc1nnc(Cc2ccc([N+](=O)[O-])cc2)o1
Query :: Arrange the 3 entries by MIC so the values rise. Please express your ranking as an ordered list of the labels.
Result :: P, Q, R
(P: 1.56 µg/mL, Q: 12.5 µg/mL, R: 25 µg/mL)
